Test system: myeloid leukemia patient primary cells Pat.13
Experiment: cell viability (% survival relative to DMSO control); higher = less cytotoxic
Details: 100 nM; 72 h
resultType: cell viability (%)
All answers are understood in %, so give the number only.

Below are worked cases with known answers.
[
  {
    "compound": "O=C1C(SCCO)=C(SCCO)C(=O)c2ccccc21",
    "displayUnit": "%",
    "cell viability": 96.4
  },
  {
    "compound": "CN(CCOc1ccc(Cc2sc(O)nc2O)cc1)c1ccccn1 [Rosiglitazone]",
    "displayUnit": "%",
    "cell viability": 99.9
  },
  {
    "compound": "CO[C@H]1C[C@@H]2CC[C@@H](C)[C@@](O)(O2)C(=O)C(=O)N2CCCC[C@H]2C(=O)O[C@H]([C@H](C)C[C@@H]2CC[C@@H](OCCO)[C@H](OC)C2)CC(=O)[C@H](C)/C=C(\\C)[C@@H](O)[C@@H](OC)C(=O)[C@H](C)C[C@H](C)/C=C/C=C/C=C/1C [Everolimus]",
    "displayUnit": "%",
    "cell viability": 74.8
  },
  {
    "compound": "C[C@]12C=CC(=O)C=C1CC[C@@H]1[C@@H]2[C@@H](O)C[C@@]2(C)[C@H]1CC[C@]2(O)C(=O)CO [Prednisolone]",
    "displayUnit": "%",
    "cell viability": 92.6
  }
]

Moving on to another compound below.
Problem: Need cell viability of C=CCN(C)CCCCCCOc1ccc(C(=O)c2ccc(Br)cc2)c(F)c1.O=C(O)/C=C/C(=O)O [Ro 48-8071 fumarate] , thanks.
Solution: 82.6

###

Tested on: HL-60
Assay: cell viability (% survival relative to DMSO control); higher = less cytotoxic
Settings: 0.1 µM; 72 h; co-treatment: GSK2194069 100 nM
Where a name gives a salt, the structure may show the parent alone.
resultType: cell viability (%)
All answers are understood in %, so give the number only.

Below are worked cases with known answers.
[
  {
    "compound": "N[C@@H](CC(=O)N1CCn2c(nnc2C(F)(F)F)C1)Cc1cc(F)c(F)cc1F",
    "resultType": "cell viability",
    "displayUnit": "%",
    "valueMeasured": 99.4
  },
  {
    "compound": "N#Cc1ccc(N(Cc2ccc(Br)cc2)n2cnnc2)cc1",
    "resultType": "cell viability",
    "displayUnit": "%",
    "valueMeasured": 105
  },
  {
    "compound": "CCCCCOC(=O)Nc1nc(=O)n([C@@H]2O[C@H](C)[C@@H](O)[C@H]2O)cc1F",
    "resultType": "cell viability",
    "displayUnit": "%",
    "valueMeasured": 99.4
  },
  {
    "compound": "Cc1cc(CS(=O)(=O)c2ccccc2)cc(OCc2ccc(CN3CCC[C@@H]3CO)cc2)c1 [PF 543 hydrochloride]",
    "resultType": "cell viability",
    "displayUnit": "%",
    "valueMeasured": 96.8
  },
  {
    "compound": "CC(C)CC(=O)N[C@H](C(=O)N[C@H](C(=O)N[C@@H](CC(C)C)[C@@H](O)CC(=O)N[C@@H](C)C(=O)N[C@@H](CC(C)C)[C@@H](O)CC(=O)O)C(C)C)C(C)C",
    "resultType": "cell viability",
    "displayUnit": "%",
    "valueMeasured": 103
  },
  {
    "compound": "CCc1c(C(=O)C(N)=O)c2c(OCC(=O)O)cccc2n1Cc1ccccc1",
    "resultType": "cell viability",
    "displayUnit": "%",
    "valueMeasured": 97
  }
]

Moving on to another compound below.
Problem: Need cell viability of CCOC(=O)c1ccc(-c2ccc(OC(=O)N(C)Cc3cccc(-c4ccncc4)c3)cc2)cc1 , thanks.
Solution: 86.5

###

System: THP-1
Experiment: cell viability (% survival relative to DMSO control, bortezomib = 0%); higher = less cytotoxic
Details: 100 nM; 72 h
# Lookup of reported cell viability keyed by entry

Below are worked cases with known answers.
[
  {
    "compound": "Cc1ccc(-c2cc(C(F)(F)F)nn2-c2ccc(S(N)(=O)=O)cc2)cc1",
    "cell viability": "105%"
  },
  {
    "compound": "N[C@@H](CC(=O)N1CCn2c(nnc2C(F)(F)F)C1)Cc1cc(F)c(F)cc1F",
    "cell viability": "106%"
  },
  {
    "compound": "COc1ccc2c(NC(=O)Nc3cccc(C(F)(F)F)n3)ccnc2c1",
    "cell viability": "105%"
  },
  {
    "compound": "O=C(O)CC[N+](=O)[O-]",
    "cell viability": "99.1%"
  }
]

Moving on to another compound below.
Problem: Need cell viability of CC/C=C\C[C@H]1C(=O)CC[C@@H]1CC(=O)OC [Methyl jasmonate] , thanks.
Solution: 101%

###

Test system: BV-173
Experiment: cell viability (% survival relative to DMSO control, bortezomib = 0%); higher = less cytotoxic
Conditions: 10 nM; 72 h
resultType: cell viability (%)
All answers are understood in %, so give the number only.

Below are worked cases with known answers.
[
  {
    "mol": "O=c1cc(N2CCOCC2)oc2c(-c3ccccc3)cccc12",
    "testedTarget": "BV-173",
    "valueMeasured": 95.7
  },
  {
    "mol": "COC(=O)c1cc2c(C(F)(F)F)cc(-c3ccccc3)cc2n1O",
    "testedTarget": "BV-173",
    "valueMeasured": 100
  },
  {
    "mol": "CC(C)CC(=O)N[C@H](C(=O)N[C@H](C(=O)N[C@@H](CC(C)C)[C@@H](O)CC(=O)N[C@@H](C)C(=O)N[C@@H](CC(C)C)[C@@H](O)CC(=O)O)C(C)C)C(C)C",
    "testedTarget": "BV-173",
    "valueMeasured": 86.5
  },
  {
    "mol": "Cc1c(Cl)cccc1S(=O)(=O)Nc1nc(CC(=O)N2CCN(C)CC2)cs1",
    "testedTarget": "BV-173",
    "valueMeasured": 103
  },
  {
    "mol": "O=C1C(SCCO)=C(SCCO)C(=O)c2ccccc21",
    "testedTarget": "BV-173",
    "valueMeasured": 106
  }
]

Problem: Need cell viability of N#Cc1ccc(N(Cc2ccc(Br)cc2)n2cnnc2)cc1 , thanks.
Solution: 95.3

Problem: Need cell viability of Cc1cc2c(C(C)C)c(O)c(O)c(C=O)c2c(O)c1-c1c(C)cc2c(C(C)C)c(O)c(O)c(C=O)c2c1O , thanks.
Solution: 90

Problem: Need cell viability of COc1ccc2c(NC(=O)Nc3cccc(C(F)(F)F)n3)ccnc2c1 , thanks.
Solution: 93.6

###

Test system: Mono-Mac-6
Assay: cell viability (% survival relative to DMSO control, bortezomib = 0%); higher = less cytotoxic
Conditions: 1000 nM; 72 h
resultType: cell viability (%)
All answers are understood in %, so give the number only.

Below are worked cases with known answers.
[
  {
    "compound": "O=c1c(-c2ccc(O)cc2)coc2cc(O[C@@H]3O[C@H](CO)[C@@H](O)[C@H](O)[C@H]3O)ccc12",
    "testedTarget": "Mono-Mac-6",
    "cell viability, %": 107
  },
  {
    "compound": "C=CCN(C)CCCCCCOc1ccc(C(=O)c2ccc(Br)cc2)c(F)c1.O=C(O)/C=C/C(=O)O [Ro 48-8071 fumarate]",
    "testedTarget": "Mono-Mac-6",
    "cell viability, %": 96
  },
  {
    "compound": "Cc1cccc(Nc2cc(Cl)nc(SCC(=O)O)n2)c1C",
    "testedTarget": "Mono-Mac-6",
    "cell viability, %": 99.2
  },
  {
    "compound": "N#C/C(=C\\c1ccc(O)cc1)C(=O)O [alpha-cyano-4-hydroxycinnamic acid]",
    "testedTarget": "Mono-Mac-6",
    "cell viability, %": 103
  },
  {
    "compound": "O=C(Nc1ccccc1)c1cc([N+](=O)[O-])ccc1Cl",
    "testedTarget": "Mono-Mac-6",
    "cell viability, %": 112
  }
]

Moving on to another compound below.
Problem: Need cell viability of CCN(CC)C(=S)SSC(=S)N(CC)CC , thanks.
Solution: 25.5

###

Test system: SHI-1
Experiment: cell viability (% survival relative to DMSO control, bortezomib = 0%); higher = less cytotoxic
Settings: 1 nM; 72 h
# Lookup of reported cell viability keyed by entry

Below are worked cases with known answers.
[
  {
    "compound": "CN1CCN(CCCN2c3ccccc3Sc3ccc(C(F)(F)F)cc32)CC1 [Trifluoperazine]",
    "resultType": "cell viability",
    "valueMeasured": "113%"
  },
  {
    "compound": "Cc1cc(C(=O)NNCc2ccccc2)no1 [Isocarboxazid]",
    "resultType": "cell viability",
    "valueMeasured": "101%"
  },
  {
    "compound": "Cc1c2c(=O)n(-c3ccccc3Cl)[nH]c2cc(=O)n1Cc1ccccn1",
    "resultType": "cell viability",
    "valueMeasured": "84.3%"
  },
  {
    "compound": "O=c1cc(-c2ccccc2)oc2c1ccc1ccccc12 [Alpha-Naphtoflavone]",
    "resultType": "cell viability",
    "valueMeasured": "113%"
  },
  {
    "compound": "Cc1c(Cl)cccc1S(=O)(=O)Nc1nc(CC(=O)N2CCN(C)CC2)cs1 [BVT-2733]",
    "resultType": "cell viability",
    "valueMeasured": "110%"
  }
]

Problem: Request body: readout cell viability, system SHI-1, query Cc1cccc(Nc2cc(Cl)nc(SCC(=O)O)n2)c1C [Pirinixic acid] . Return the value.
Solution: 98.5%

Problem: Request body: readout cell viability, system SHI-1, query CCc1c(C(=O)C(N)=O)c2c(OCC(=O)O)cccc2n1Cc1ccccc1 [Varespladib] . Return the value.
Solution: 106%

Problem: Request body: readout cell viability, system SHI-1, query OC[C@H]1O[C@@H](n2cnc3c2N=CNC[C@H]3O)C[C@@H]1O [Pentostatin] . Return the value.
Solution: 93.9%

Problem: Request body: readout cell viability, system SHI-1, query N#C/C(=C\c1ccc(O)cc1)C(=O)O [alpha-cyano-4-hydroxycinnamic acid] . Return the value.
Solution: 99.9%

Problem: Request body: readout cell viability, system SHI-1, query OC[C@H]1NC[C@H](O)[C@@H](O)[C@@H]1O [Duvoglustat] . Return the value.
Solution: 103%

These measurements were taken from the supplement of paper PMC8671470.
